ASSAY OVERVIEW: Solubility of compound IVO in solutions containing L-Arginine
Assay type: physicochemical
ASSAY SETUP: aqueous L-Arginine solution in DI water, aqueous with cosolvent or surfactant or cyclodextrin, thermodynamic from solid, L-Arginine 0.31 % w/w in DI water
QUANTITY KIND: solubility at 24 h (µg/mL)
Provide the reading as a plain figure in µg/mL.

Answer with the recorded solubility at 24 h for the compound listed here: Cc1cccc(COc2ccc(Sc3ccoc3C3NC(=O)NC3=O)cc2)c1 (stereo not shown) [IVO]
15.1

###

ASSAY OVERVIEW: Solubility of compound IVO in solutions containing L-Arginine
Type: physicochemical
ASSAY SETUP: aqueous L-Arginine solution in DI water, aqueous with cosolvent or surfactant or cyclodextrin, thermodynamic from solid, L-Arginine 0.5 % w/w in DI water
QUANTITY KIND: solubility at 24 h

State, in one line, measured solubility at 24 h of Cc1cccc(COc2ccc(Sc3ccoc3C3NC(=O)NC3=O)cc2)c1 (stereo not shown) [IVO]
25.3 µg/mL

###

ASSAY OVERVIEW: Aqueous solubility in different cyclodextrin solutions (excess compound, shaken 24 hours, HPLC)
Format: physicochemical
ASSAY SETUP: aqueous cyclodextrin solution, aqueous with cosolvent or surfactant or cyclodextrin, thermodynamic from solid, SBEBCD 75 mg/ml, room temperature, read-out: Solubility in CD's solution (concentration of compound)
QUANTITY KIND: solubility at 24 h (mg/mL)
State just the number; it will be interpreted in mg/mL.

Note down solubility at 24 h recorded for Cc1cccc(COc2ccc(Sc3ccoc3C3NC(=O)NC3=O)cc2)c1 (stereo not shown)
0.156

###

ASSAY OVERVIEW: Solubility of compound IVO in solutions containing L-Arginine
Assay type: physicochemical
ASSAY SETUP: aqueous L-Arginine solution in DI water, aqueous with cosolvent or surfactant or cyclodextrin, thermodynamic from solid, L-Arginine 0.15 % w/w in DI water
QUANTITY KIND: solubility at 24 h (µg/mL)
Respond numerically; units are µg/mL and should not be typed.

Could you please provide reported solubility at 24 h for Cc1cccc(COc2ccc(Sc3ccoc3C3NC(=O)NC3=O)cc2)c1 (stereo not shown) ? Thanks!
11.1

###

Listing of recorded solubility at 24 h by entry.
ASSAY OVERVIEW: Aqueous solubility in different cyclodextrin solutions (excess compound, shaken 24 hours, HPLC)
Format: physicochemical
ASSAY SETUP: aqueous cyclodextrin solution, water, thermodynamic from solid, HPGCD 0 mg/ml, room temperature, read-out: Solubility in CD's solution (concentration of compound)
# output: numeric value plus its unit

Solved cases below.
- COMPOUND: "O=C1NC(=O)C(c2occc2Sc2ccc(OCc3cccc(C(F)(F)F)c3)cc2)N1 (stereo not shown) [IVQ]"
  solubility at 24 h: "138 µg/mL"
- COMPOUND: "Cc1ccccc1COc1ccc(Sc2ccoc2C2NC(=O)NC2=O)cc1 (stereo not shown) [IVP]"
  solubility at 24 h: "64 µg/mL"
- COMPOUND: "COc1cccc(COc2ccc(Sc3ccoc3C3NC(=O)NC3=O)cc2)c1 (stereo not shown) [IVE]"
  solubility at 24 h: "23 µg/mL"

Please report the measured solubility at 24 h for Cc1cccc(COc2ccc(Sc3ccoc3C3NC(=O)NC3=O)cc2)c1 (stereo not shown) [IVO]
26 µg/mL

###

ASSAY OVERVIEW: Solubility of compound IVO in solutions containing L-Arginine
Assay type: physicochemical
ASSAY SETUP: aqueous L-Arginine solution in DI water, aqueous with cosolvent or surfactant or cyclodextrin, thermodynamic from solid, L-Arginine 1.25 % w/w in DI water
QUANTITY KIND: solubility at 24 h (µg/mL)
Quick note: give the figure in µg/mL, leave out the unit.

Quickly give me recorded solubility at 24 h for Cc1cccc(COc2ccc(Sc3ccoc3C3NC(=O)NC3=O)cc2)c1 (stereo not shown)
46.8
